Test system: M. tuberculosis H37Rv growth inhibition, 7H9 media
runDescription: M. tuberculosis growth inhibition, HTS (AID 449762);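 also: bacterial growth assessed after seven days of incubation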
testContext: measured here: IC90 growth inhibition
Inconclusive results are not listed.
propertyLabel: IC90

C#CCn1c(=NC(=O)c2cc(Cl)sc2Cl)sc2cc(S(N)(=O)=O)ccc21	> 100 µM
COc1ccc(-c2cn3cc([N+](=O)[O-])ccc3n2)cc1OC	> 100 µM
COC(=O)C1=C(C)NC(=O)/C1=C\c1cc(C)n(-c2cccc(C)c2)c1C	> 100 µM

====

System: M. tuberculosis H37Rv growth inhibition, 7H9 media
runDescription: M. tuberculosis growth inhibition, HTS (AID 449762);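 also: bacterial growth assessed after seven days of incubation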
testContext: measured here: IC90 growth inhibition
Results filed as inconclusive are left out.
propertyLabel: IC90

O=[N+]([O-])c1cccnc1N1CCC(c2cc(-c3cccc(C(F)(F)F)c3)n[nH]2)CC1	26.1 µM
CC(NC(=O)CCl)c1ccc(Cl)c(Cl)c1 (stereo unspecified)	2.91 µM
CCCCNC(=S)N/N=C/c1cccc(OCC)c1O	6.79 µM
C=CCOc1ccc2c(c1)C(=NO)c1cc(OCC=C)ccc1-2	9.27 µM
CC1CCCC(C)N1/N=C/c1c[nH]c2ccc(Br)cc12 (stereo unspecified)	26.3 µM
On1onc2c3cc(-c4ccccc4)nc3ccc21	< 0.2 µM
N=c1oc2cc(O)ccc2cc1C(=O)Nc1ccc(Br)cc1	4.2 µM
N[C@@H](CCl)C(=O)O	58.9 µM
COc1ccc(CN2CCN(C(c3ccc(F)cc3)c3ccc(F)cc3)CC2)c(OC)c1OC	26.3 µM
Cc1cc(C)cc(NC(=O)c2ccc(Cn3nc(C)c(Cl)c3C)o2)c1	41.9 µM
Cc1cc(C)n2nc(/C(C#N)=C/c3ccccn3)c(C#N)c2n1	17.6 µM
CCOC(=O)COc1cc([N+](=O)[O-])cc2cccnc12	34.6 µM
C=CCNc1oc(-c2ccc(-c3ccccc3)cc2)nc1C#N	13.7 µM
CCN1/C(=C/c2ccc3cc(C)ccc3[n+]2CC)Sc2ccccc21	1.61 µM
N#Cc1ccc(CN2CCN(CC(=O)NCCc3ccc(Cl)cc3Cl)CC2)cc1	54 µM
c1ccc2c(c1)CCN(c1nc(CN3CCOCC3)nc3sc4c(c13)CCCC4)C2	33.6 µM
Cc1cc(C)n(-c2nc(NCCN(C)C)c3c4c(sc3n2)CCCC4)n1	18.6 µM
N#Cc1nccnc1S(=O)(=O)c1cccs1	61.1 µM
CN(CC(=O)Nc1ccc(F)c(F)c1F)c1cnccn1	12.8 µM
Nc1[nH]n2c(=O)cc(-c3ccccc3)nc2c1N=Nc1ccc2c(c1)OCO2	26.6 µM
O=C(OCC(=O)N1CCCc2ccccc21)c1ccc(S(=O)(=O)C(F)F)cc1	38 µM
COc1ccc(/C=N/OCC(=O)OCC(=O)N(C)c2ccccc2)cc1	39.1 µM
O=[N+]([O-])c1ccc(C2CC(c3ccccc3)=Nc3ccccc3S2)cc1 (stereo unspecified)	6.66 µM
Cc1ccn2c(-c3csc(NCc4ccccc4)n3)c(C)nc2c1	52.8 µM
Cc1ccc2cc(C)c(N3CCN(c4ccccn4)CC3)nc2c1	46.3 µM
Cc1cc(NC(=O)c2cc(-c3ccncc3)nc3c(C)cccc23)no1	> 100 µM
COc1ccc(/C=N/Nc2cc(C)nc3ccc(OC)cc23)c(OC)c1	11.9 µM
c1ccc(-n2cnc3cc(NCc4cccs4)ccc32)cc1	97.2 µM
O=C(Cc1ccc(Nc2nc3ccc(Br)cc3[nH]2)cc1)NCCc1cccs1	31.2 µM
CCCCn1cnc2c(c(-c3ccccc3)c(-c3ccccc3)n2Cc2ccco2)c1=N	97.4 µM
O=[N+]([O-])c1cc(Cl)c(O)c(-[n+]2c(-c3ccccc3)cc(-c3ccccc3)cc2-c2ccccc2)c1	5.36 µM
CCOC(=O)C1=NOC(CNc2ncc(C(F)(F)F)cc2Cl)C1 (stereo unspecified)	14.1 µM
CCOc1ccc(/C=N/Nc2ccc(Cl)nn2)c(O)c1	7.48 µM
Cc1ccc(Nc2nc(N)c([N+](=O)[O-])c(N3CCCC(C)C3)n2)cc1C (stereo unspecified)	> 100 µM
CCOc1ccc(N=CC2=C(O)CC(c3ccco3)CC2=O)cc1 (stereo unspecified)	> 100 µM
CC(Oc1cc2oc(=O)c3c(c2cc1Cl)CCCC3)C(=O)NCc1ccccn1 (stereo unspecified)	> 100 µM
Cc1ccc2nc(/N=C(\N)NC(=O)NC3CCCCC3)nc(C)c2c1	8.85 µM
Cc1cccc(OCc2n(CC(=O)OC3CC(C)CCC3C(C)C)c3ccccc3[n+]2C)c1 (stereo unspecified)	9.6 µM
Cc1c(NC(=O)c2ccc([N+](=O)[O-])o2)cccc1-c1nc2ncccc2o1	> 25 µM
CCOc1cc(/C=N\NC(=O)Cn2nc([N+](=O)[O-])cc2C)ccc1OCc1cccc2ccccc12	> 100 µM
c1cc2c3c(cccc3c1)NC1(CCC3(CC1)Nc1cccc4cccc(c14)N3)N2	> 100 µM
